// provenance: ChEMBL document CHEMBL1133991

Species: Mus musculus
Experiment: Dose which protected 50 % of the mice from a tonic convulsion.
Type: functional
test-readout: ED50
The reply must contain the numeric value and, after it, the unit.

O=C(O)Cc1cccc2c1Cc1c-2nc(O)c2nc(CP(=O)(O)O)cn12    2.5 mg/kg
O=C(O)c1cn2c3c(nc(O)c2n1)-c1cccc(Cc2nn[nH]n2)c1C3    2 mg/kg
O=C(O)[C@@H]1C[C@H]2C[C@@H](CCc3nn[nH]n3)CC[C@H]2CN1 [TEZAMPANEL ANHYDROUS]    3.4 mg/kg
O=C(O)Cc1cccc2c1Cc1c-2nc(O)c2nc(P(=O)(O)O)cn12    2.9 mg/kg

Would you mind telling me what ED50 value was observed for `O=P(O)(O)c1cn2c3c(nc(O)c2n1)-c1cccc(Cc2nn[nH]n2)c1C3` ?
0.8 mg/kg

* * *

Test system: Mus musculus
Assay: Dose which protected 50 % of the mice from a tonic convulsion, pretreatment was before 3 hr by i.v. administration in MES test.
Assay type: functional
Conditions: iv
Entries and their measured ED50 follow.
Give a bare numeral; the unit mg/kg is implied.

Sample answers from the record:
O=C(O)Cc1cccc2c1Cc1c-2nc(O)c2nc(-c3ccc(C(=O)O)cc3)cn12    15
O=C(O)Cc1cccc2c1Cc1c-2nc(O)c2nc(P(=O)(O)O)cn12    3.5
O=C(O)Cc1cn2c3c(nc(O)c2n1)-c1cccc(CC(=O)O)c1C3    28

Can you share its ED50? I mean this molecule: `O=C(O)Cc1cccc2c1Cc1c-2nc(O)c2nc(C(=O)O)cn12`
25.6

What ED50 value was documented for this molecule, `O=C(O)Cc1cccc2c1Cc1c-2nc(O)c2nc(CP(=O)(O)O)cn12` ?
22.4

I would be grateful if you could share the reported ED50 for `O=C(O)/C=C/c1cn2c3c(nc(O)c2n1)-c1cccc(CC(=O)O)c1C3` .
25.6

Please give the measured ED50 for this molecule: `O=P(O)(O)c1cn2c3c(nc(O)c2n1)-c1cccc(Cc2nn[nH]n2)c1C3`
3.5

* * *

Species: Mus musculus
Assay: Dose which protected 50 % of the mice from a tonic convulsion.
Format: functional
test-readout: ED50 (mg/kg)
Write the answer as a number in mg/kg, unit excluded.

For orientation, consider the following solved cases.
CNC(=O)Cc1cccc2c1Cc1c-2nc(O)c2nc(C(=O)O)cn12    5
O=C(O)Cc1cccc2c1Cc1c-2nc(O)c2nc(-c3ccc(C(=O)O)cc3)cn12    5
O=C(O)/C=C/c1cn2c3c(nc(O)c2n1)-c1cccc(CC(=O)O)c1C3    3.8

Here is another molecule to look at.
For the molecule shown here, `O=C(O)Cc1cn2c3c(nc(O)c2n1)-c1cccc(CC(=O)O)c1C3` , give the reported ED50.
0.5

* * *

Molecular target: Glutamate receptor ionotropic, AMPA (Rattus norvegicus, UniProt P19490+P19491+P19492+P19493)
Listed compounds paired with reported IC50
Express the result in nM but write the number alone.

Some compounds with known IC50 results, for comparison:
CS(=O)(=O)NC(=O)Cc1cccc2c1Cc1c-2nc(O)c2nc(C(=O)O)cn12    235
O=C(O)Cc1cccc2c1Cc1c-2nc(O)c2nc(P(=O)(O)O)cn12    150
O=C(O)Cc1cccc2c1Cc1c-2nc(O)c2nc(-c3ccc(C(=O)O)cc3)cn12    12
O=C(O)Cc1cccc2c1Cc1c-2nc(O)c2nc(-c3cccc(C(=O)O)c3)cn12    40

For the compound `O=C(O)c1cn2c3c(nc(O)c2n1)-c1cccc(CP(=O)(O)O)c1C3` , what IC50 is on record?
586

Quick one: IC50 of `O=C(O)Cc1cccc2c1Cc1c-2nc(O)c2nc(-c3ccccc3C(=O)O)cn12` ?
100

// lookup IC50 for `O=C(O)CCc1cn2c3c(nc(O)c2n1)-c1cccc(CC(=O)O)c1C3`
31

Sample `O=C(O)c1cn2c3c(nc(O)c2n1)-c1cccc(Cc2nn[nH]n2)c1C3` — what was its IC50?
15
